# Assay Details: in vitro
# Study Conditions: human
Measured Endpoint: CC50 (µM)
Your answer should be a plain number; it is taken to be in µM.

## Task Query CC50 for COc1nc(N)nc2c1ncn2C1O[C@H](COP(=O)(N[C@@H](C)C(=O)OCCC(C)(C)C)Oc2cccc3ccccc23)[C@@H](O)[C@@]1(C)O (some centres unmarked)
## Result 7.6

## Task Return reported CC50. Input molecule: COc1nc(N)nc2c1ncn2C1O[C@H](COP(=O)(N[C@H](C(=O)OCC(C)(C)C)C(C)C)Oc2cccc3ccccc23)[C@@H](O)[C@@]1(C)O (some centres unmarked)
## Result 30

## Task # return recorded CC50 for input COC(=O)[C@@H](C)c1ccc2cc(OP(=O)(N[C@@H](C)C(=O)OCc3ccc(F)cc3F)OC[C@H]3OC(n4cnc5c(OC)nc(N)nc54)[C@](C)(O)[C@@H]3O)ccc2c1 (some centres unmarked)
## Result 28

## Task State, in one line, measured CC50 of COC(=O)[C@@H](C)c1ccc2cc(OP(=O)(N[C@H](C(=O)OCC(C)(C)C)C(C)C)OC[C@H]3OC(n4cnc5c(OC)nc(N)nc54)[C@](C)(O)[C@@H]3O)ccc2c1 (some centres unmarked)
## Result 29

## Task State, in one line, measured CC50 of COc1nc(N)nc2c1ncn2C1O[C@H](COP(=O)(N[C@H](C(=O)OCc2ccccc2)C(C)C)Oc2cccc3ccccc23)C[C@@]1(C)O (some centres unmarked)
## Result 22

---
## Task Entry COc1nc(N)nc2c1ncn2C1O[C@H](COP(=O)(N[C@H](C(=O)OCC(C)(C)C)c2ccccc2)Oc2cccc3ccccc23)[C@@H](O)[C@@]1(C)O (some centres unmarked) needs its CC50 filled in; supply it.
## Result 19

## Task For the molecule COc1nc(N)nc2c1ncn2C1O[C@H](COP(=O)(N[C@H](C(=O)OCc2ccccc2)c2ccccc2)Oc2cccc3ccccc23)[C@@H](O)[C@@]1(C)O (some centres unmarked) , report CC50.
## Result 50

## Task Retrieve CC50 measured for CNc1nc(N)nc2c1ncn2C1O[C@H](COP(=O)(N[C@@H](C)C(=O)O[C@@H](C)c2ccccc2)Oc2cccc3ccccc23)[C@@H](O)[C@@]1(C)O (some centres unmarked) and print it.
## Result 54

Taken from patent US8759318B2.
